pIC50: −log10 of the molar value.
Each entry below carries its measured pIC50, system: c-Src (Homo sapiens (Human), UniProt P12931).
Sequence (P12931 whole entry, looked up): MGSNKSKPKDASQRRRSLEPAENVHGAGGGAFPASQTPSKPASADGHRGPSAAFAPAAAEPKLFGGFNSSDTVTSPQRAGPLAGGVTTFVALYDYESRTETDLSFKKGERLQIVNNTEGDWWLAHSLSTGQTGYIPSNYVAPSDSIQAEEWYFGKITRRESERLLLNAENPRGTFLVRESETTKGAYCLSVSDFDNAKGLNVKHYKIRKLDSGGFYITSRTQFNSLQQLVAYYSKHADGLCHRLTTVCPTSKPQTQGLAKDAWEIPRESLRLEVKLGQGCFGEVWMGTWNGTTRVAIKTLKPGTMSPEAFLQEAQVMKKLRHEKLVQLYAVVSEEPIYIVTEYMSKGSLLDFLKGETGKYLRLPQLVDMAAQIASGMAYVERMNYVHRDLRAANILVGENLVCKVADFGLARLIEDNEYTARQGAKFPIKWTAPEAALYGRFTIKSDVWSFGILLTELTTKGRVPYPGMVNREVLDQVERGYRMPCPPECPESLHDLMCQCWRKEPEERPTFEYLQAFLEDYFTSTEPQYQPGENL
readout.type: pIC50

Exercise: Consider the compound COCCOCCOCCOc1cc(Nc2cc(Oc3ccc(NC(=O)Nc4cc(C(C)(C)C)cc(P(C)(C)=O)c4OC)c4ccccc34)ccn2)cc(OC)c1 and give its recorded pIC50.
Solution: 7.96

1. COc1cc(CO)cc(Nc2cc(Oc3ccc(NC(=O)Nc4cc(C(C)(C)C)cc(CC(N)=O)c4OC)c4ccccc34)ccn2)c1
2. COc1c(CC(N)=O)cc(C(C)(C)C)cc1NC(=O)Nc1ccc(Oc2ccnc(Nc3cc(C)cc(C)c3)c2)c2ccccc12
3. COc1c(C[S+](C)[O-])cc(C(C)(C)C)cc1NC(=O)Nc1ccc(Oc2ccnc(Nc3ccccc3)c2)c2ccccc12 (stereo not shown)
4. COc1c(CNC(C)=O)cc(C(C)(C)C)cc1NC(=O)Nc1ccc(Oc2ccnc(Nc3ccccc3)c2)c2ccccc12
5. COCCOCCOCCNC(=O)c1cc(Nc2cc(Oc3ccc(NC(=O)Nc4cc(C(C)(C)C)cc(CNC(=O)CN(C)C)c4OC)c4ccccc34)ccn2)cc(OC)c1
Exercise: Task for the reader: rank each entry by its pIC50, from the minimum upward. Give the order by naming the labels one after another as requested.
Solution: 3, 4, 2, 1, 5

A. COc1c(CC(N)=O)cc(C(C)(C)C)cc1NC(=O)Nc1ccc(Oc2ccnc(Nc3cc(C#N)cc(OCCN4CCOCC4)c3)c2)c2ccccc12
B. COc1cc(Nc2cc(Oc3ccc(NC(=O)Nc4cc(C(C)(C)C)cc(P(C)(C)=O)c4OC)c4ccccc34)ccn2)cc(S(=O)(=O)N(C)C)c1
C. COc1c(NC(=O)Nc2ccc(Oc3ccnc(Nc4ccccc4)n3)c3ccccc23)cc(C(C)(C)C)cc1P(C)(C)=O
Exercise: Order the 3 compounds from highest to lowest pIC50. Present the labels in the sequence the task asks for.
Solution: C, A, B

A. COc1cc(Nc2cc(Oc3ccc(NC(=O)Nc4cc(C(C)(C)C)cc(P(C)(C)=O)c4OC)c4ccccc34)ccn2)cc(S(=O)(=O)N(C)CCN2CCN(C)CC2)c1
B. COc1c(CC(N)=O)cc(C(C)(C)C)cc1NC(=O)Nc1ccc(Oc2ccnc(Nc3cccc(OC(F)F)c3)c2)c2ccccc12 [38(s)]
Exercise: Which value of pIC50 is smaller, the one for A or the one for B ? Write down the label of the entry you select.
Solution: B
(B: 6.44, A: 7.60)

* * *

Biological target: UniProtKB P43405
readout.type: IC50 (nM)

Exercise: Please report the measured IC50 for COc1c(CP(C)(C)=O)cc(C(C)(C)C)cc1NC(=O)Nc1ccc(Oc2ccnc(Nc3ccccc3)c2)c2ccccc12 tested on UniProtKB P43405.
Solution: 289

Exercise: Provide IC50, recorded with UniProtKB P43405, of COc1cc(Nc2cc(Oc3ccc(NC(=O)Nc4cc(C(C)(C)C)cc([S+](C)[O-])c4OC)c4ccccc34)ccn2)cc(C(=O)NCCN2CCOCC2)c1 (stereo not shown)
Solution: 996

Exercise: // fetch IC50 for COc1cc(Nc2cc(Oc3ccc(NC(=O)Nc4cc(C(C)(C)C)cc(P(C)(C)=O)c4OC)c4ccccc34)ccn2)cc(C(N)=O)c1 ; system: UniProtKB P43405
Solution: 347

Exercise: Specify IC50 for COCCOCCOCCOc1cc(Nc2cc(Oc3ccc(NC(=O)Nc4cc(C(C)(C)C)cc(CS(C)(=O)=O)c4OC)c4ccccc34)ccn2)cc(OC)c1 , system UniProtKB P43405.
Solution: 134

Exercise: // fetch IC50; item: COc1cc(Nc2cc(Oc3ccc(NC(=O)Nc4cc(C(C)(C)C)cc([S+](C)[O-])c4OC)c4ccccc34)ccn2)ccc1C(=O)O (stereo not shown) ; system: UniProtKB P43405
Solution: 5

a. COc1cccc(Nc2cc(Oc3ccc(NC(=O)Nc4cc(C(C)(C)C)cc([S+](C)[O-])c4OC)c4ccccc34)ccn2)c1 (stereo not shown)
b. COc1c(NC(=O)Nc2ccc(Oc3ccnc(Nc4ccccc4)c3)c3ccccc23)cc(C(C)(C)C)cc1[S+](C)[O-] (racemic)
Exercise: Smaller IC50 value? Options are a and b # respond with the chosen item's label
Solution: a

I. COc1c(NC(=O)Nc2ccc(Oc3ccnc(Nc4ccccc4)c3)c3ccccc23)cc(C(C)(C)C)cc1C(=O)NCCN1CCC1
II. COc1cc(Nc2cc(Oc3ccc(NC(=O)Nc4cc(C(C)(C)C)cc(CC(N)=O)c4OC)c4ccccc34)ccn2)ccc1C(=O)NCC(CO)(CO)CO
Exercise: Consider entries I and II . Which has the numerically lower IC50? Pick one and reply with its label.
Solution: I
(I: 54 nM, II: 120 nM)

I. COc1c(NC(=O)Nc2ccc(Oc3ccnc(Nc4ccccc4)c3)c3ccccc23)cc(C(C)(C)C)cc1OCP(C)(C)=O [15(e)]
II. COc1cccc(Nc2cc(Oc3ccc(NC(=O)Nc4cc(C(C)(C)C)cc(P(C)(C)=O)c4OC)c4ccccc34)ccn2)c1
Exercise: Form field 'greater IC50' accepts I or II ; which applies? # answer = label of selected item
Solution: I
(I: 551 nM, II: 278 nM)

1. COc1cccc(Nc2cc(Oc3ccc(NC(=O)Nc4cc(C(C)(C)C)cc(C(=O)NCCN5CCOCC5)c4OC)c4ccccc34)ccn2)c1
2. COc1c(NC(=O)Nc2ccc(Oc3ccnc(Nc4ccccc4)n3)c3ccccc23)cc(C(C)(C)C)cc1OCP(C)(C)=O
Exercise: Could you kindly indicate whether 1 or 2 has the higher IC50 value? Write down the label of the entry you select.
Solution: 2
(2: 477 nM, 1: 154 nM)

* * *

Tested on: PBMCs
Test: IL-2 release in CD3/CD28 stimulated PBMC cells (assay c)
Format: cell-based
Details: Homo sapiens, read-out: IC50 Values for Inhibition of Cytokine Release, PBMCs IL-2
Description: PBMCs from healthy subjects are separated from whole blood using a density gradient (Lymphoprep, Axis-Shield Healthcare). Cells are added to a 96 well plate pre-coated with a mixture of CD3/CD28 monoclonal antibodies (0.3 μg/mL eBioscience and 3 μg/mL BD Pharmingen respectively). […] Supernatants are harvested and IL-2 and IFN gamma release determined by Sandwich ELISA (Duo-set, R&D System). The IC50 is determined from the dose response curve.
readout.type: pIC50
Conceptually, pIC50 converts a concentration in mol/L into minus its log10.

Known pIC50 results, listed for orientation:
Exercise: Given COc1cc(Nc2cc(Oc3ccc(NC(=O)Nc4cc(C(C)(C)C)cc(S(C)(=O)=O)c4OC)c4ccccc34)ccn2)cc(C(=O)NCCN2CCOCC2)c1 [Example 54] , respond with its pIC50.
Solution: 7.42

Exercise: Return value of pIC50 for input COc1cc(Nc2cc(Oc3ccc(NC(=O)Nc4cc(C(C)(C)C)cc([S+](C)[O-])c4OC)c4ccccc34)ccn2)cc(C(=O)NCCN2CCOCC2)c1 (stereo not drawn) [Example 46] , no commentary.
Solution: 7.33

Consider the record given below.
Exercise: Please list pIC50 recorded for the molecule COc1c(NC(=O)Nc2ccc(Oc3ccnc(NCc4ccccc4)n3)c3ccccc23)cc(C(C)(C)C)cc1P(C)(C)=O [38(g)]
Solution: 5.79

* * *

Tested on: PBMCs
Assay: LPS-induced IL-8 release in PBMC cells (assay b)
Type: cell-based, human
Conditions: Homo sapiens, PBMC; LPS-stimulated PBMCs; read-out: IC50 Values for Inhibition of Cytokine Release, PBMCs IL-8
Source text: Peripheral blood mononuclear cells (PBMCs) from healthy subjects are separated from whole blood using a density gradient (Lymphoprep, Axis-Shield Healthcare). […] The supernatant is harvested for determination of IL-8 and TNFα concentrations by sandwich ELISA (Duo-set, R&D systems) and read on the fluorescence microplate reader (Varioskan® Flash, ThermoFisher Scientific). […]
readout.type: pIC50
pIC50 is a log-scale quantity: -log10 of the concentration expressed in molar.

Exercise: Return value of pIC50 for input COc1c(CNC(C)=O)cc(C(C)(C)C)cc1NC(=O)Nc1ccc(Oc2ccnc(Nc3cc(C)cc(C)c3)c2)c2ccccc12 , no commentary.
Solution: 8.14

Exercise: Supply reported pIC50 belonging to this compound: COc1cc(Nc2cc(Oc3ccc(NC(=O)Nc4cc(C(C)(C)C)cc(P(C)(C)=O)c4OC)c4ccccc34)ccn2)cc(S(=O)(=O)N(C)CCN2CCN(C)CC2)c1
Solution: 8.74

Below: the item to evaluate.
Exercise: Consider the compound COc1c(NC(=O)Nc2ccc(Oc3ccnc(Nc4cnccn4)c3)c3ccccc23)cc(C(C)(C)C)cc1P(C)(C)=O and give its recorded pIC50.
Solution: 9.10

* * *

Test system: PBMCs
Experiment: LPS-induced IL-8 release in PBMC cells (assay b)
Type: cell-based, human
Conditions: Homo sapiens, PBMC; LPS-stimulated PBMCs; read-out: IC50 Values for Inhibition of Cytokine Release, PBMCs IL-8
readout.type: pIC50
For clarity, pIC50 is expressed as the negative log10 of concentration in mol/L.

Worked cases, answers included:
Exercise: Supply reported pIC50 belonging to this compound: COc1cc(Nc2cc(Oc3ccc(NC(=O)Nc4cc(C(C)(C)C)cc(C(=O)NCCN5CCOCC5)c4OC)c4ccccc34)ccn2)cc(C(N)=O)c1
Solution: 8.72

Exercise: For COc1cc(Nc2cc(Oc3ccc(NC(=O)Nc4cc(C(C)(C)C)cc(P(C)(C)=O)c4OC)c4ccccc34)ccn2)ccc1C(=O)NC1CCN(C)CC1 , write its pIC50.
Solution: 8.13

Exercise: Given the compound COc1c(NC(=O)Nc2ccc(Oc3ccnc(NCc4ccccn4)c3)c3ccccc23)cc(C(C)(C)C)cc1P(C)(C)=O [38(e)] , write its reported pIC50.
Solution: 8.54

Exercise: Fill in pIC50 for record COc1c(NC(=O)Nc2ccc(Oc3ccnc(Nc4ccn(C)n4)c3)c3ccccc23)cc(C(C)(C)C)cc1P(C)(C)=O
Solution: 8.96

Exercise: Give me measured pIC50, please, for this compound: COc1cc(Nc2nccc(Oc3ccc(NC(=O)Nc4cc(C(C)(C)C)cc(S(C)(=O)=O)c4OC)c4ccccc34)n2)ccc1C(=O)O
Solution: 7.91

Exercise: Name the recorded pIC50 of the item COCCOCCOCCNC(=O)c1cc(Nc2cc(Oc3ccc(NC(=O)Nc4cc(C(C)(C)C)cc([S+](C)[O-])c4OC)c4ccccc34)ccn2)cc(OC)c1 (stereo not shown) in your answer.
Solution: 9.40

***
Exercise: Provide one value: measured pIC50 of COc1c(NC(=O)Nc2ccc(Oc3ccnc(Nc4cnoc4)n3)c3ccccc23)cc(C(C)(C)C)cc1P(C)(C)=O [15(z)]
Solution: 7.44

Exercise: Note pIC50 for the compound shown: COc1c(CC(N)=O)cc(C(C)(C)C)cc1NC(=O)Nc1ccc(Oc2ccnc(Nc3ccn(C)n3)c2)c2ccccc12
Solution: 8.89

Exercise: Give the measured pIC50 for COCCOCCOCCNC(=O)c1cc(Nc2cc(Oc3ccc(NC(=O)Nc4cc(C(C)(C)C)cc(CN5CCN(C)CC5)c4OC)c4ccccc34)ccn2)cc(OC)c1
Solution: 8.77

Exercise: Name the recorded pIC50 of the compound listed here: COc1c(NC(=O)Nc2ccc(Oc3ccnc(N[C@@H]4CCOC4)n3)c3ccccc23)cc(C(C)(C)C)cc1P(C)(C)=O
Solution: 8.43

Exercise: // fetch pIC50 given entry COc1c(NC(=O)Nc2ccc(Oc3ccnc(Nc4ccccc4)c3)c3ccccc23)cc(C(C)(C)C)cc1OCP(C)(C)=O [15(e)]
Solution: 8.33

Exercise: Recall and state the measured pIC50 for COc1c(NC(=O)Nc2ccc(Oc3ccnc(Nc4cc(C)c5[nH]ncc5c4)n3)c3ccccc23)cc(C(C)(C)C)cc1P(C)(C)=O .
Solution: 8.49

Exercise: Specify pIC50 for COc1c(NC(=O)Nc2ccc(Oc3ccnc(Nc4ccccc4)n3)c3ccccc23)cc(C(C)(C)C)cc1P(C)(C)=O and stop.
Solution: 8.35
